Target: human MTAP (Homo sapiens, UniProt Q13126)
Construct: made in house
Sequence (Q13126 1-283): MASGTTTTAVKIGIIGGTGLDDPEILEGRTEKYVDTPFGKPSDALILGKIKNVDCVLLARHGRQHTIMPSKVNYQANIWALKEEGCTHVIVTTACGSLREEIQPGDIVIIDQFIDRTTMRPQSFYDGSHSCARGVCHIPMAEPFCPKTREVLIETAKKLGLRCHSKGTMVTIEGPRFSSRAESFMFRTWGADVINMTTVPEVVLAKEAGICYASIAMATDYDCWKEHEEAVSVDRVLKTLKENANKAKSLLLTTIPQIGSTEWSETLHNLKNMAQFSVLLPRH
Experiment: Inhibition of human MTAP, continuous spectrophotometric assay
Assay type: biochemical
property-measured: pKi
FYI, pKi means -log10 of a concentration in mol per litre.

Solved cases below.
INSERT INTO assay_data (molecule, assay_value) VALUES
  ('CC[C@@H]1CN(Cc2c[nH]c3c(N)ncnc23)C[C@H]1O (racemic)', 8.07),
  ('Nc1ncnc2c(CN3C[C@@H](O)[C@H](C4CC4)C3)c[nH]c12 (racemic)', 8.24),
  ('Nc1ncnc2c(CN3C[C@@H](O)[C@H](C4CCCC4)C3)c[nH]c12 (racemic)', 8.62),
  ('Nc1ncnc2c(CN3C[C@@H](O)[C@H](c4ccccc4)C3)c[nH]c12 (racemic)', 8.37);

Now consider the entry below.
Input: Would you kindly share the measured pKi for Nc1ncnc2c(CN3C[C@@H](CCCSCc4ccccc4)[C@H](O)C3)c[nH]c12 (racemic) ?
Output: 7.15

---

molecular target: human MTAP (Homo sapiens); construct: made in house; assay: Inhibition of human MTAP, continuous spectrophotometric assay; type: biochemical
pKi: −log10 of the molar value.
Examples of molecules with documented pKi follow.

Use the examples below as a reference point.
INSERT INTO results (molecule, assay_value) VALUES
  ('CC[C@H]1CN(Cc2c[nH]c3c(N)ncnc23)C[C@@H]1O', '< 5.30'),
  ('Nc1ncnc2c(CN3C[C@@H](CC4CCCCC4)[C@H](O)C3)c[nH]c12 (racemic)', '< 5.30');

Now look at this entry.
Input: I am curious: what pKi value has been reported for CCCC[C@@H]1CN(Cc2c[nH]c3c(N)ncnc23)C[C@H]1O (racemic) ?
Output: < 5.30
